Data provenance is paper PMC11714206.

subject.of.test: MyD88^TIR (Homo sapiens)
Construct: MyD88 (residues 148–296); 6xHis; made in house; host or cells: E. coli BL21 (DE3)
Sequence (Q99836 148-296): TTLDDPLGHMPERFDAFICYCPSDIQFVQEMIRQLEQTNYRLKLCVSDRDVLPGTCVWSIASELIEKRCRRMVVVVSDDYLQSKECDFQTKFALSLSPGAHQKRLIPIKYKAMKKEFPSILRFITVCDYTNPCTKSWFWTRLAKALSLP
experimental.details: T‐Surf phage library (P8 and P3) selection against MyD88^TIR, four rounds, NGS read counts
Format: binding
condition.summary: P3_MyD88: rank by count after grouping
Use 200 as the dividing line for Rank (after), with the line itself on the true side and lower values as false.

Item `YHPLDLPRGKAIKPEILG` with Rank (after) of 200 or above?
false

Is the recorded value of Rank (after) equal to or greater than 200 for this sequence? `GNDVLGRKGLRVGSKD`
true

// inclusive: Rank (after) at least 200? input: `QYSHTLLAHTSKFPDE`
true

In plain terms: is recorded Rank (after) at least 200 for `LNVESWRQALERAGKL` ?
false

Check the entry `SSFRKGLWRLLELLKK` : does Rank (after) equal or exceed 200?
false

Kindly determine if Rank (after) recorded for `SRFREGLWPLLELSKK` is above or exactly 200.
false

---

Consider the following sequences; for each one, report its Rank (after).
subject.of.test: MAL^TIR (Homo sapiens, UniProt P58753)
Construct: MAL (residues 79–221); 6xHis; made in house; host or cells: E. coli BL21 (DE3)
Sequence (P58753 79-221): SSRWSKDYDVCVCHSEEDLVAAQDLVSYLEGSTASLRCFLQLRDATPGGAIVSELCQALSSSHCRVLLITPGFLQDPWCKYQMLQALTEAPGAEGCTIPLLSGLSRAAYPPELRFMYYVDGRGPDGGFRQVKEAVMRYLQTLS
experimental.details: T‐Surf phage library (P8 and P3) selection against MAL^TIR, four rounds, NGS read counts
Format: binding
condition.summary: P8_MAL: rank by count after grouping
Form field (numeric): enter value without unit.

Give the observed Rank (after) of `SEFLGAAEKRAGQSDD` for MAL^TIR (Homo sapiens, UniProt P58753).
481

Fill in: Rank (after) on MAL^TIR (Homo sapiens, UniProt P58753), entry `SEFILQIILWMNPKIV`
165

Please respond with reported Rank (after) (system MAL^TIR (Homo sapiens, UniProt P58753)) for `WFYERLVSLILRNTRV` .
118

For MAL^TIR (Homo sapiens, UniProt P58753), give Rank (after) of the listed sequence: `TFLGHLYSALVHAGIH`
479

Please look at `HFFWIQLKAFWAKPA` and tell me its recorded Rank (after) on MAL^TIR (Homo sapiens, UniProt P58753).
184

Using MAL^TIR (Homo sapiens, UniProt P58753) as the test system, report measured Rank (after) of `RNFVAYLLQALANKSI` .
405

Find the measured Rank (after) of `AFFCEQLRTVIGKPTI` with MAL^TIR (Homo sapiens, UniProt P58753) as test system.
414

Write Rank (after) of `RNLVAYLLQALANKGI` ; system used: MAL^TIR (Homo sapiens, UniProt P58753)
451

Report Rank (after) from MAL^TIR (Homo sapiens, UniProt P58753) testing of `QLIQQWSELHLHQLQL`
443

Report value: Rank (after), system: MAL^TIR (Homo sapiens, UniProt P58753), sequence: `AFLCTQLNNVTDTPTL`
442

Report Rank (after) under test system MAL^TIR (Homo sapiens, UniProt P58753) for `WDDPWFWDKLHYAMPR` .
463

# assay system MAL^TIR (Homo sapiens, UniProt P58753): give Rank (after) of `SAAYDDFWDRLIRMIE`
173

Send back MAL^TIR (Homo sapiens, UniProt P58753) Rank (after) of `TFLAICIMRWCRRAF` only.
99

For MAL^TIR (Homo sapiens, UniProt P58753), give the measured Rank (after) of the entry `WFYERLVCLILRDIKV`
465

Under MAL^TIR (Homo sapiens, UniProt P58753), report Rank (after) for `WFIIKFRTVLDRVNDV`
396

Determine reported Rank (after) for `QLIQQWIELHAPAAS` ; test system: MAL^TIR (Homo sapiens, UniProt P58753).
151

GET Rank (after) | system: MAL^TIR (Homo sapiens, UniProt P58753) | item: `RNFVAYLFQALAKPA`
164

Please respond with reported Rank (after) (system MAL^TIR (Homo sapiens, UniProt P58753)) for `AFLWAYLNSVTHPPTF` .
471

Recall the reported Rank (after) of `TRPYLDWPQEPEMHEA` on MAL^TIR (Homo sapiens, UniProt P58753) and write it down.
434

// output Rank (after); input `AFLYTFLNNLTHPTKF` ; system MAL^TIR (Homo sapiens, UniProt P58753)
94

Please tell me the measured Rank (after) for `WFLSAFLIPMAQLADT` ; system: MAL^TIR (Homo sapiens, UniProt P58753).
412

Jot down Rank (after) (MAL^TIR (Homo sapiens, UniProt P58753)) of `WFYERLVNLNLRDTKV` .
140

Recall the reported Rank (after) of `AFLFTFLINLTHPSNF` on MAL^TIR (Homo sapiens, UniProt P58753) and write it down.
450

Provide the reported Rank (after) (system: MAL^TIR (Homo sapiens, UniProt P58753)) for `LFFWGSLKQLLRNDGR`
128

Look up and report measured Rank (after) (MAL^TIR (Homo sapiens, UniProt P58753)) for the following sequence: `TFLGHLYNALVQAAF`
453

Report Rank (after) under test system MAL^TIR (Homo sapiens, UniProt P58753) for `YFLHFLLFSRPQTQYI` .
137

Tell me its Rank (after) on MAL^TIR (Homo sapiens, UniProt P58753): `AFLYAFLNNLTHPTTF`
139

Report its Rank (after) with MAL^TIR (Homo sapiens, UniProt P58753) as the test system: `AFLYTFLVNLTHPPNF`
134

Lab note: record Rank (after) of `AFLCTHLKNLIHKTTI` tested on MAL^TIR (Homo sapiens, UniProt P58753).
415

Please tell me the measured Rank (after) for `WFYDRLVSLFLRDPKV` ; system: MAL^TIR (Homo sapiens, UniProt P58753).
476

Give MAL^TIR (Homo sapiens, UniProt P58753) Rank (after) for the following sequence: `TFLDTLLNKLAQAAIH`
470

Fill: Rank (after) (MAL^TIR (Homo sapiens, UniProt P58753)) for this sequence `ALFWEQLRTVLGKLTM`
435

Provide Rank (after), system MAL^TIR (Homo sapiens, UniProt P58753), entry `KNLFNELVSKNIRTFM`
116

Answer briefly: Rank (after) recorded on MAL^TIR (Homo sapiens, UniProt P58753) for `LFFWEKLRQLLRRAAS`
387

Jot down Rank (after) (MAL^TIR (Homo sapiens, UniProt P58753)) of `LFFWERLKQLLRSDCR` .
100

Give Rank (after) only, for `SEFIQKIILWMNQTNV` , using MAL^TIR (Homo sapiens, UniProt P58753) data.
440

Report its Rank (after) with MAL^TIR (Homo sapiens, UniProt P58753) as the test system: `WFMMTFRTVLHHVHDV`
425

For MAL^TIR (Homo sapiens, UniProt P58753), give Rank (after) of the listed sequence: `WFYERLVSHMLRDTKV`
179

Report Rank (after) from MAL^TIR (Homo sapiens, UniProt P58753) testing of `AFLYTFLVNLTHPTMF`
468

Specify Rank (after) for `AFLYAFLINLTHPTNI` , system MAL^TIR (Homo sapiens, UniProt P58753).
142

Param request: Rank (after) | system MAL^TIR (Homo sapiens, UniProt P58753) | item `WFYERLLSRILRDTKV`
119

Please report Rank (after) with MAL^TIR (Homo sapiens, UniProt P58753) for item `ACFWEQRPTVLGKPPM` .
417

// output Rank (after); input `WFYERLVSLILRATQV` ; system MAL^TIR (Homo sapiens, UniProt P58753)
474

Tell me Rank (after) of `AFFWQQLKSVPGNPTM` when tested on MAL^TIR (Homo sapiens, UniProt P58753).
154

Give Rank (after) for this entry on MAL^TIR (Homo sapiens, UniProt P58753): `CFLFTVRSAIYAMNPA`
445

# return Rank (after) of `WFYESLVSLILRDTIV` (system: MAL^TIR (Homo sapiens, UniProt P58753))
122

Look up and report measured Rank (after) (MAL^TIR (Homo sapiens, UniProt P58753)) for the following sequence: `RNFVAYLFQGLANKVI`
427

Determine reported Rank (after) for `WLYERLVSLSLRDTKV` ; test system: MAL^TIR (Homo sapiens, UniProt P58753).
168

Recall the reported Rank (after) of `RNFGVYLFQALANKGI` on MAL^TIR (Homo sapiens, UniProt P58753) and write it down.
409

Fill in: Rank (after) on MAL^TIR (Homo sapiens, UniProt P58753), entry `WFYELLVSLIVRDTKV`
394

State recorded Rank (after) with MAL^TIR (Homo sapiens, UniProt P58753), entry `WCYERRVSLILRETKV` , no comment.
385

Under MAL^TIR (Homo sapiens, UniProt P58753): report Rank (after) of `WFLFTVRSAIYAMDQVADT` .
459
